// provenance: ChEMBL document CHEMBL1961873

Below, each entry is listed alongside its reported inhibition.
Target: Phosphatidylinositol 4,5-bisphosphate 3-kinase catalytic subunit delta isoform (Homo sapiens) (UniProt O00329);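 also: values are mean percent inhibition of PI3K-delta, part of the GSK PKIS screen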
Sequence (whole entry): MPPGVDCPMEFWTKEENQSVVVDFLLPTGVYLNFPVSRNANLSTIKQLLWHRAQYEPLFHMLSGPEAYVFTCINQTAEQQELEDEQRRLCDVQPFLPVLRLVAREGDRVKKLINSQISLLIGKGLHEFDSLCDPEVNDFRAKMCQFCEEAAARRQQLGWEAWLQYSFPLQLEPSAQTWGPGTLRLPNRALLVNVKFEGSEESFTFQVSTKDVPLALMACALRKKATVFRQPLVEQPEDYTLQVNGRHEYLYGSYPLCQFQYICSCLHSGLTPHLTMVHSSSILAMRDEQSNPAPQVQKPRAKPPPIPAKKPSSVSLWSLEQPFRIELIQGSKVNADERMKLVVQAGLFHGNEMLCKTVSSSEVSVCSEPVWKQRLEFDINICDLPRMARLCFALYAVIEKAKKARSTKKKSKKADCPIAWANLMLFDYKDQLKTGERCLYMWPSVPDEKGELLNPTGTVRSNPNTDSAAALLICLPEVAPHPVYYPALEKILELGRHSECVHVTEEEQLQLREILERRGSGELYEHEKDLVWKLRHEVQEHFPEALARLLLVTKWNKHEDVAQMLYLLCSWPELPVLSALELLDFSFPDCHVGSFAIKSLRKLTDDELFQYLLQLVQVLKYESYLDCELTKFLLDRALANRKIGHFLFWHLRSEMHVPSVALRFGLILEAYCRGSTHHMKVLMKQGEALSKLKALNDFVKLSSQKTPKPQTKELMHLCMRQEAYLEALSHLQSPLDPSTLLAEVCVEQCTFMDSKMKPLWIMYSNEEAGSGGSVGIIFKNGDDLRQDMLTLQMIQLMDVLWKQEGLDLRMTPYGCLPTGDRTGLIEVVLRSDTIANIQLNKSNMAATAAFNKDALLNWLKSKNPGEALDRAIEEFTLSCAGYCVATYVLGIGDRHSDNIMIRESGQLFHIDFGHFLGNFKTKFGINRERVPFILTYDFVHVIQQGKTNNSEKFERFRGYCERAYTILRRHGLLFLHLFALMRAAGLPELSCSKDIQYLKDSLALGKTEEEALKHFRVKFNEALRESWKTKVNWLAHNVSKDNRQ
Details: at 0.1 µM
Recorded Metric: inhibition (%)

molecule=COC(=O)Nc1nc2ccc(Oc3ccc(NC(=O)Nc4cc(C(F)(F)F)ccc4F)cc3)cc2s1 measured_result=1.44
molecule=CCS(=O)(=O)c1ccc(OC)c(Nc2ncc(-c3cccc(C(C)=O)c3)o2)c1 measured_result=0.22
molecule=COc1cc2c(cc1Nc1nc(Nc3cccc(F)c3C(N)=O)c3cc[nH]c3n1)N(C(=O)CN1CCN(C(C)C)CC1)CC2 measured_result=-1.97
molecule=O=C(Nc1n[nH]c2nnc(-c3cccnc3)cc12)C1CC1 measured_result=1.05
molecule=O=C(O[C@H]1CN[C@H](C#Cc2cc3ncnc(Nc4ccc5c(ccn5Cc5cc(F)ccc5F)c4)c3s2)C1)N1CCOCC1 measured_result=2.02
molecule=FC(F)(F)CNc1nccc(-c2cnn3ncccc23)n1 measured_result=0.99
molecule=COC(=O)Nc1nc2cc(Oc3ccc(NC(=O)Nc4ccccc4)cc3)ccc2[nH]1 measured_result=0.3
molecule=COc1c(C(N)=O)cc(-c2ccc(Cl)cc2)cc1-c1ccc(S(N)(=O)=O)cc1 measured_result=0.32
molecule=CCN1CCC(C(=O)Nc2n[nH]c3nnc(-c4cccc(F)c4F)cc23)CC1 measured_result=-3.18
molecule=CCS(=O)(=O)c1ccc(OC)c(Nc2ncc(-c3cccc(F)c3)o2)c1 measured_result=2.23
molecule=CC1(C)CC(n2cnc(-c3ccc(F)cc3)c2-c2ccnc(N)n2)CC(C)(C)N1 measured_result=5.71
molecule=CNC(=O)c1ncccc1Nc1nc(Nc2cc3c(cc2OC)CCCN3C(=O)CN(C)C)nc2[nH]ccc12 measured_result=1.46
molecule=Fc1ccc(Nc2nccc(-c3c(-c4ccc(C(F)(F)F)cc4)nn4ncccc34)n2)cc1F measured_result=1.05
molecule=CC(C)c1ccc(-c2cc(-c3c[nH]nc3-c3ccccn3)ccn2)cc1 measured_result=0.89
molecule=NC(=O)c1ccc2c(-c3ccnc(NCCCO)n3)c(-c3ccc(F)cc3)nn2c1 measured_result=2.78
molecule=N#Cc1ccc2c(-c3ccnc(NC4CC4)n3)c(-c3ccc(F)cc3)nn2c1 measured_result=-0.45
molecule=CNC(=O)c1cncc(/C=C/c2ccccc2C)c1 measured_result=1.24
molecule=NS(=O)(=O)c1ccc(N/N=C2\C(=O)Nc3cccc(CCc4ccncc4)c32)cc1 measured_result=0.97
molecule=CNC(=O)c1sc(-n2cnc3cc(OC)c(OC)cc32)cc1OCc1ccccc1C(F)(F)F measured_result=0.73
molecule=Cc1nnc(-c2cccc(-c3ccc(C(=O)NCC4CC4)cc3)c2)o1 measured_result=-0.87
molecule=CCOc1ccc2c(-c3ccnc(Nc4cc(OC)cc(C(F)(F)F)c4)n3)cnn2n1 measured_result=-1.72
molecule=CS(=O)(=O)Nc1ccc(-c2ccc3c(NC(=O)C4CC4)n[nH]c3c2)cc1 measured_result=0.92
molecule=O=C(O[C@H]1CN[C@H](C#Cc2cc3ncnc(Nc4ccc5c(cnn5Cc5ccccc5)c4)c3s2)C1)N1CCOCC1 measured_result=0.29
molecule=CCCNc1cccc(-n2ncc3c(N/N=C/c4ccncc4)ncnc32)c1 measured_result=3.31
molecule=COc1cc(N2CCN(C(C)C)CC2)ccc1Nc1nc(Nc2cccc(F)c2C(=O)O)c2cc[nH]c2n1 measured_result=-0.59
molecule=COc1cccc(-n2ncc3c(N/N=C/c4ccc(C(=O)NCCN(C)C)cc4)ncnc32)c1 measured_result=4.52
molecule=COc1ccc(Nc2ncc(-c3ccccc3)o2)cc1OC measured_result=0.94
molecule=Cc1cc(O)cc(C)c1/C=C/c1cncc(C(=O)OC(C)(C)C)c1 measured_result=5.19
molecule=Cc1cc(O)cc(C)c1/C=C/c1cncc(C(N)=O)c1 measured_result=0.87
molecule=COc1cccc(Nc2nccc(-c3cnn4ncccc34)n2)c1 measured_result=3.95
molecule=c1ccc(-c2n[nH]cc2-c2ccnc(-c3ccc(OCCn4ccnc4)cc3)c2)nc1 measured_result=1.43
molecule=Cc1ccc(-c2cc3c(NC(=O)C4CC4)ncnc3o2)cc1 measured_result=2.48
molecule=OCCCNc1nccc(-c2c(-c3ccc(F)cc3)nn3cc(C(F)(F)F)ccc23)n1 measured_result=4.76
molecule=CS(=O)(=O)CCNCc1ccc(-c2ccc3ncnc(Nc4ccc(OCc5cccc(C(F)(F)F)c5)cc4)c3c2)o1 measured_result=0.9
molecule=CN1CCC(n2cnc(-c3ccc(F)cc3)c2-c2ccnc(NCCO)n2)CC1 measured_result=1.87
molecule="CC1=C(C(=O)Nc2ccc3[nH]nc(C)c3c2)C(c2ccc(C(F)(F)F)cc2)CC(=O)N1 (centres undefined)" measured_result=2.89
molecule="CC1=C(C(=O)Nc2ccc3[nH]ncc3c2)C(c2ccc(F)cc2)N=C(c2ccc(C(F)(F)F)nc2)N1 (centres undefined)" measured_result=2.9
molecule=NS(=O)(=O)c1cccc(N/C=C2\C(=O)Nc3ccccc32)c1 measured_result=4.26
molecule=COc1ccc(-c2nn3ncccc3c2-c2ccnc(Nc3ccc(F)c(F)c3)n2)cc1 measured_result=1.6
